# measured on: CDK4/cyclin D3 (Homo sapiens)
# Construct: made in house; host or cells: insect cells (baculovirus co-infection)
# assay: Inhibition of CDK4/Cyclin D retinoblastoma kinase activity;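 for % Inhib CDK4/D @ 1 μM: relative to DMSO control wells without compound minus no-enzyme background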
# Assay type: biochemical
# condition details: test compound at 1 μM (head line shifted: 'mM' printed beside 'Structure'); 1 µM
measure: % Inhib CDK4/D @ 1 μM (%)
Give the number; % is assumed, so skip it.

For orientation, consider the following solved cases.
compound	reported result
Nc1nc(Nc2ccc(S(=O)(=O)CCO)cc2)sc1C(=O)c1c(Cl)cccc1Cl [DD(189)]	32.2
CCCS(=O)(=O)c1ccc(Nc2nc(N)c(C(=O)c3c(Cl)cccc3Cl)s2)cc1 [DD(225)]	0.6
COC(=O)CS(=O)(=O)c1ccc(Nc2nc(N)c(C(=O)c3c(Cl)cccc3Cl)s2)cc1 [DD(186)]	38.9

Now let's try a different one.
IN: For NC(=O)CS(=O)(=O)c1ccc(Nc2nc(N)c(C(=O)c3c(Cl)cccc3Cl)s2)cc1 [DD(221)] , what is its reported % Inhib CDK4/D @ 1 μM?
OUT: 17.6

----------
# measured on: CDK4/cyclin D3 (Homo sapiens, UniProt P11802)
# Construct: made in house; host or cells: insect cells (baculovirus co-infection)
# Sequence (P11802 whole entry): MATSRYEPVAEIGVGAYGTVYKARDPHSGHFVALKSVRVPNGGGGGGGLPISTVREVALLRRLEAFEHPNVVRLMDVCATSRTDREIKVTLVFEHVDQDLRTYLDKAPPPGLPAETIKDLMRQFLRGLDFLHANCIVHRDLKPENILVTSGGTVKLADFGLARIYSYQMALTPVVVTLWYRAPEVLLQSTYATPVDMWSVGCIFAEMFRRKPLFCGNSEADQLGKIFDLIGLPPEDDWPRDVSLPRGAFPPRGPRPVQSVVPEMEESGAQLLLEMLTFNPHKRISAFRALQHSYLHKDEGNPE
# Sequence (P30281 1-264 partner limits assumed): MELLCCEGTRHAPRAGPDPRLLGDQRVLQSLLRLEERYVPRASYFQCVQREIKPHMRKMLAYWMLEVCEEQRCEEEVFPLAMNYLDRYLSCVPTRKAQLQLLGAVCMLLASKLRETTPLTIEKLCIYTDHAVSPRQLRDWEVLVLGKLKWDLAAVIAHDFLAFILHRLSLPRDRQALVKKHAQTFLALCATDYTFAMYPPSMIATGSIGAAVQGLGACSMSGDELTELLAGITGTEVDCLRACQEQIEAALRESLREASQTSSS
# assay: Inhibition of CDK4/Cyclin D retinoblastoma kinase activity
# Format: biochemical
# condition details: test compound at 0.1 μM; read-out: % Inhib CDK4/D @ 0.1 μM
measure: inhibition at 0.1 µM (%)
// units = %; emit number, no label

IN: Record CN1CCCC1CCSc1cccc(Nc2nc(N)c(C(=O)c3c(Cl)cccc3Cl)s2)c1 (stereo not drawn) : what is its inhibition at 0.1 µM with CDK4/cyclin D3 (Homo sapiens, UniProt P11802)?
OUT: 37

IN: Item: C=CCC[S+]([O-])c1cccc(Nc2nc(N)c(C(=O)c3c(Cl)cccc3Cl)s2)c1 (stereo not drawn) Test system: CDK4/cyclin D3 (Homo sapiens, UniProt P11802) Read-out: inhibition at 0.1 µM Value: ?
OUT: 28

IN: Form field - read-out: inhibition at 0.1 µM; system: CDK4/cyclin D3 (Homo sapiens, UniProt P11802); submitted item: Nc1nc(Nc2ccc([S+]([O-])CC3CC3)cc2)sc1C(=O)c1c(Cl)cccc1Cl (stereo not drawn)
OUT: 28

----------
# measured on: CDK4/cyclin D3 (Homo sapiens, UniProt P11802)
# Construct: made in house; host or cells: insect cells (baculovirus co-infection)
# assay: Inhibition of CDK4/Cyclin D retinoblastoma kinase activity
# Assay type: biochemical
# condition details: test compound at 0.1 μM; read-out: % Inhib CDK4/D @ 0.1 μM
Items are presented alongside their recorded inhibition at 0.1 µM.
Express it in %; write the number only.

Record excerpt, results attached:
compound	measured on	inhibition at 0.1 µM, %
Nc1nc(Nc2ccc([S+]([O-])Cc3ncon3)cc2)sc1C(=O)c1c(Cl)cccc1Cl (stereo not drawn)	CDK4/cyclin D3 (Homo sapiens, UniProt P11802)	56
NC(=O)CSc1ccc(Nc2nc(N)c(C(=O)c3c(Cl)cccc3Cl)s2)cc1	CDK4/cyclin D3 (Homo sapiens, UniProt P11802)	67
Nc1nc(Nc2cccc(SCC3CCCO3)c2)sc1C(=O)c1c(Cl)cccc1Cl (stereo not drawn)	CDK4/cyclin D3 (Homo sapiens, UniProt P11802)	23
Nc1nc(Nc2cccc(SCC3CO3)c2)sc1C(=O)c1c(Cl)cccc1Cl (stereo not drawn)	CDK4/cyclin D3 (Homo sapiens, UniProt P11802)	34
CC(CSc1cccc(Nc2nc(N)c(C(=O)c3c(Cl)cccc3Cl)s2)c1)CN(C)C (stereo not drawn)	CDK4/cyclin D3 (Homo sapiens, UniProt P11802)	16

IN: // lookup inhibition at 0.1 µM for CN1CCCC1CCSc1ccc(Nc2nc(N)c(C(=O)c3c(Cl)cccc3Cl)s2)cc1 (stereo not drawn)
OUT: 19

IN: For COC(=O)/C=C/CSc1cccc(Nc2nc(N)c(C(=O)c3c(Cl)cccc3Cl)s2)c1 , what is its reported inhibition at 0.1 µM?
OUT: 31

----------
# measured on: CDK4/cyclin D3 (Homo sapiens)
# Construct: made in house; host or cells: insect cells (baculovirus co-infection)
# assay: Inhibition of CDK4/Cyclin D retinoblastoma kinase activity
# Type: biochemical
# condition details: test compound at 0.03 (unit cell empty, head line shifted; μM)
# Protocol: Cyclin-dependent kinase activity was measured by quantifying the enzyme-catalyzed, time-dependent incorporation of radioactive phosphate from [^32P]ATP or [^33P]ATP into a protein substrate. […] The phosphorylated substrate was then captured on a nitrocellulose or phosphocellulose membrane using a 96-well filtration manifold, and unincorporated radioactivity was removed by repeated washing with 0.85% phosphoric acid. Radioactivity was quantified by exposing the dried membranes to a phosphorimager. […]
measure: % Inhib CDK4/D @ 0.03

compound	% Inhib CDK4/D @ 0.03
COc1cccc(CS(=O)(=O)c2ccc(Nc3nc(N)c(C(=O)c4c(Cl)cccc4Cl)s3)cc2)c1 [DD(177)]	−29%
Nc1nc(Nc2ccc(S(=O)(=O)CCO)cc2)sc1C(=O)c1c(Cl)cccc1Cl [DD(229)]	−13%
Cc1noc(C)c1CS(=O)(=O)c1ccc(Nc2nc(N)c(C(=O)c3c(Cl)cccc3Cl)s2)cc1 [DD(202)]	17%
CCOC(=O)CCS(=O)(=O)c1ccc(Nc2nc(N)c(C(=O)c3c(Cl)cccc3Cl)s2)cc1 [DD(222)]	−9%

Let's switch to this compound now.
IN: What value of % Inhib CDK4/D @ 0.03 has been recorded for this entry: Nc1nc(Nc2ccc(S(=O)(=O)CCN3CCCCC3)cc2)sc1C(=O)c1c(Cl)cccc1Cl [DD(171)]
OUT: −29%

----------
# measured on: CDK4/cyclin D3 (Homo sapiens)
# Construct: made in house; host or cells: insect cells (baculovirus co-infection)
# assay: Inhibition of CDK4/Cyclin D retinoblastoma kinase activity;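 for % Inhib CDK4/D @ 1 μM: relative to DMSO control wells without compound minus no-enzyme background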
# Assay type: biochemical
# condition details: test compound at 1 μM (head line shifted: 'mM' printed beside 'Structure'); read-out: % Inhib CDK4/D @ 1 μM
In this section we review reported inhibition at 1 µM values for a set of molecules.

molecule	measured on	inhibition at 1 µM
CCOC(=O)CC[S+]([O-])c1cccc(Nc2nc(N)c(C(=O)c3c(Cl)cccc3Cl)s2)c1 (stereo not shown)	CDK4/cyclin D3 (Homo sapiens)	39.3%
CC(=O)OCCSc1cccc(Nc2nc(N)c(C(=O)c3c(Cl)cccc3Cl)s2)c1	CDK4/cyclin D3 (Homo sapiens)	71.9%
Nc1nc(Nc2ccc([S+]([O-])CC(O)CO)cc2)sc1C(=O)c1c(Cl)cccc1Cl (stereo not shown)	CDK4/cyclin D3 (Homo sapiens)	77.9%
CC(C)CCOC(=O)CSc1ccc(Nc2nc(N)c(C(=O)c3c(Cl)cccc3Cl)s2)cc1	CDK4/cyclin D3 (Homo sapiens)	59.7%
CN(C)CCCSc1ccc(Nc2nc(N)c(C(=O)c3c(Cl)cccc3Cl)s2)cc1	CDK4/cyclin D3 (Homo sapiens)	54.5%
C=CCCSc1ccc(Nc2nc(N)c(C(=O)c3c(Cl)cccc3Cl)s2)cc1	CDK4/cyclin D3 (Homo sapiens)	48%
CN(C)CCS(=O)(=O)c1ccc(Nc2nc(N)c(C(=O)c3c(Cl)cccc3Cl)s2)cc1	CDK4/cyclin D3 (Homo sapiens)	17.6%
CCCSc1ccc(Nc2nc(N)c(C(=O)c3c(Cl)cccc3Cl)s2)cc1	CDK4/cyclin D3 (Homo sapiens)	65.5%

IN: For the record CN(C)CCC[S+]([O-])c1cccc(Nc2nc(N)c(C(=O)c3c(Cl)cccc3Cl)s2)c1 (stereo not shown) , what value of inhibition at 1 µM is listed for CDK4/cyclin D3 (Homo sapiens)?
OUT: 56%

IN: Record Nc1nc(Nc2ccc([S+]([O-])Cc3ncon3)cc2)sc1C(=O)c1c(Cl)cccc1Cl (stereo not shown) : what is its inhibition at 1 µM with CDK4/cyclin D3 (Homo sapiens)?
OUT: 81.5%

IN: Short answer please: inhibition at 1 µM, CDK4/cyclin D3 (Homo sapiens), entry CN1CCCC1CC[S+]([O-])c1ccc(Nc2nc(N)c(C(=O)c3c(Cl)cccc3Cl)s2)cc1 (stereo not shown)
OUT: 77.1%

IN: Lookup: inhibition at 1 µM / CDK4/cyclin D3 (Homo sapiens) / CC(C)OC(=O)CC[S+]([O-])c1ccc(Nc2nc(N)c(C(=O)c3c(Cl)cccc3Cl)s2)cc1 (stereo not shown)
OUT: 49.9%

IN: What measured inhibition at 1 µM is associated with CC(C)OC(=O)CCSc1ccc(Nc2nc(N)c(C(=O)c3c(Cl)cccc3Cl)s2)cc1 on CDK4/cyclin D3 (Homo sapiens)?
OUT: 57.8%

IN: Reported inhibition at 1 µM for CDK4/cyclin D3 (Homo sapiens), given CC(C)OC(=O)CC[S+]([O-])c1cccc(Nc2nc(N)c(C(=O)c3c(Cl)cccc3Cl)s2)c1 (stereo not shown) ?
OUT: 35%

IN: Query for CDK4/cyclin D3 (Homo sapiens): what inhibition at 1 µM does the record show for CCC[S+]([O-])c1cccc(Nc2nc(N)c(C(=O)c3c(Cl)cccc3Cl)s2)c1 (stereo not shown) ?
OUT: 42.3%

IN: Quick check: inhibition at 1 µM on CDK4/cyclin D3 (Homo sapiens), item CN(C)CC[S+]([O-])c1cccc(Nc2nc(N)c(C(=O)c3c(Cl)cccc3Cl)s2)c1 (stereo not shown) ?
OUT: 57.3%
